# System: anti-CD28 scFv (SEQ ID NO: 9)
# Protocol notes: Octet bio-layer interferometry kinetic binding of anti-CD28 scFv to peptides
# Set-up: species or system human
# Run conditions: Octet RED96; biotinylated peptide loaded on streptavidin biosensor; anti-CD28 scFv in solution; 1:1 binding model
Readout: kdis (s⁻¹)
Write the number in s⁻¹ without appending the unit.

The cases that follow already have their kdis on record.
CSCC[C@H](N)C(=O)N[C@@H](CC(=O)O)C(=O)N[C@@H](Cc1c[nH]c2ccccc12)C(=O)N[C@H]1CSSC[C@@H](C(=O)N[C@@H](Cc2ccccc2)C(=O)N[C@@H](Cc2ccccc2)C(=O)O)NC(=O)[C@H](CC(=O)O)NC(=O)[C@H](C(C)C)NC(=O)[C@H](Cc2c[nH]c3ccccc23)NC(=O)[C@H](CCCNC(=N)N)NC(=O)[C@H](CCC(=O)O)NC(=O)[C@H](CCCNC(=N)N)NC(=O)[C@@H]2CCCN2C1=O [Peptide-9] | 0.0115
CSCC[C@H](N)C(=O)N[C@@H](CC(=O)O)C(=O)N[C@@H](Cc1c[nH]c2ccccc12)C(=O)N[C@H]1CSSC[C@@H](C(=O)N[C@@H](Cc2ccccc2)C(=O)N[C@@H](CO)C(=O)O)NC(=O)[C@H](CC(C)C)NC(=O)[C@H](Cc2c[nH]cn2)NC(=O)[C@H](Cc2c[nH]c3ccccc23)NC(=O)[C@H](CC(C)C)NC(=O)[C@H](CC(=O)O)NC(=O)[C@H](CCCNC(=N)N)NC(=O)[C@@H]2CCCN2C1=O [Peptide-39] | 0.00265
CC[C@H](C)[C@@H]1NC(=O)[C@@H]2CCCN2C(=O)[C@@H](NC(=O)[C@H](Cc2c[nH]c3ccccc23)NC(=O)[C@H](CC(=O)O)NC(=O)[C@@H](N)CCSC)CSSC[C@@H](C(=O)N[C@@H](Cc2ccccc2)C(=O)N[C@@H](CC(N)=O)C(=O)O)NC(=O)[C@H](CCC(=O)O)NC(=O)[C@H](CO)NC(=O)[C@H](Cc2c[nH]c3ccccc23)NC(=O)[C@H](CC(C)C)NC(=O)[C@H](Cc2ccc(O)cc2)NC1=O [Peptide-33] | 0.00153
CC[C@H](C)[C@@H]1NC(=O)[C@H](CC(=O)O)NC(=O)[C@H](CCCCN)NC(=O)[C@@H]2CCCN2C(=O)[C@@H](NC(=O)[C@H](Cc2c[nH]c3ccccc23)NC(=O)[C@H](CC(N)=O)NC(=O)[C@@H](N)CCSC)CSSC[C@@H](C(=O)N[C@@H](Cc2ccccc2)C(=O)N[C@@H](CC(N)=O)C(=O)O)NC(=O)[C@H](CC(C)C)NC(=O)[C@H](Cc2ccc(O)cc2)NC(=O)[C@H](Cc2c[nH]c3ccccc23)NC1=O [Peptide-34] | 0.00684

From here, focus on the item given below.
Form: item CSCC[C@@H]1NC(=O)[C@H](Cc2c[nH]cn2)NC(=O)[C@H](CC(C)C)NC(=O)[C@@H]2CCCN2C(=O)[C@@H](NC(=O)[C@H](Cc2c[nH]c3ccccc23)NC(=O)[C@H](CC(=O)O)NC(=O)[C@@H](N)CCSC)CSSC[C@@H](C(=O)N[C@@H](Cc2ccccc2)C(=O)N[C@@H](CO)C(=O)O)NC(=O)[C@H](CCC(=O)O)NC(=O)[C@H](Cc2c[nH]cn2)NC(=O)[C@H](Cc2c[nH]c3ccccc23)NC1=O [Peptide-35] ; test system anti-CD28 scFv (SEQ ID NO: 9); kdis: 0.00497
